Assay: Half life in Sprague-Dawley rat at 0.2 mg/kg, iv
Type: ADME, organism-based
Settings: in vivo

>  <smiles repr>
CC1(C)CCC(Nc2ncnc3c2nn2ccccc32)CC1

>  <half-life>
34 min

$$$$

###

Assay: Cmax in CD-1 mouse at 30 mg/kg, ip
Type: ADME, organism-based
Parameters: dose 30 mg/kg, route intraperitoneal
Settings: in vivo

>  <smiles repr>
CC1(C)CCC(Nc2ncnc3c2nn2ccccc32)CC1

>  <Cmax (nM)>
3000

$$$$

###

Assay: Cmax in Sprague-Dawley rat at 10 mg/kg, ip
Assay type: ADME, organism-based
Design: dose 10 mg/kg, route intraperitoneal
Settings: in vivo
measured quantity: Cmax (nM)

>  <smiles repr>
CC1(C)CCC(Nc2ncnc3c2nn2ccccc32)CC1

>  <measured quantity>
Cmax

>  <quantity unit>
nM

>  <readout number>
2300

$$$$

###

Molecular target: Metabotropic glutamate receptor 5 (Homo sapiens, UniProt P41594)
Sequence (P41594 whole entry): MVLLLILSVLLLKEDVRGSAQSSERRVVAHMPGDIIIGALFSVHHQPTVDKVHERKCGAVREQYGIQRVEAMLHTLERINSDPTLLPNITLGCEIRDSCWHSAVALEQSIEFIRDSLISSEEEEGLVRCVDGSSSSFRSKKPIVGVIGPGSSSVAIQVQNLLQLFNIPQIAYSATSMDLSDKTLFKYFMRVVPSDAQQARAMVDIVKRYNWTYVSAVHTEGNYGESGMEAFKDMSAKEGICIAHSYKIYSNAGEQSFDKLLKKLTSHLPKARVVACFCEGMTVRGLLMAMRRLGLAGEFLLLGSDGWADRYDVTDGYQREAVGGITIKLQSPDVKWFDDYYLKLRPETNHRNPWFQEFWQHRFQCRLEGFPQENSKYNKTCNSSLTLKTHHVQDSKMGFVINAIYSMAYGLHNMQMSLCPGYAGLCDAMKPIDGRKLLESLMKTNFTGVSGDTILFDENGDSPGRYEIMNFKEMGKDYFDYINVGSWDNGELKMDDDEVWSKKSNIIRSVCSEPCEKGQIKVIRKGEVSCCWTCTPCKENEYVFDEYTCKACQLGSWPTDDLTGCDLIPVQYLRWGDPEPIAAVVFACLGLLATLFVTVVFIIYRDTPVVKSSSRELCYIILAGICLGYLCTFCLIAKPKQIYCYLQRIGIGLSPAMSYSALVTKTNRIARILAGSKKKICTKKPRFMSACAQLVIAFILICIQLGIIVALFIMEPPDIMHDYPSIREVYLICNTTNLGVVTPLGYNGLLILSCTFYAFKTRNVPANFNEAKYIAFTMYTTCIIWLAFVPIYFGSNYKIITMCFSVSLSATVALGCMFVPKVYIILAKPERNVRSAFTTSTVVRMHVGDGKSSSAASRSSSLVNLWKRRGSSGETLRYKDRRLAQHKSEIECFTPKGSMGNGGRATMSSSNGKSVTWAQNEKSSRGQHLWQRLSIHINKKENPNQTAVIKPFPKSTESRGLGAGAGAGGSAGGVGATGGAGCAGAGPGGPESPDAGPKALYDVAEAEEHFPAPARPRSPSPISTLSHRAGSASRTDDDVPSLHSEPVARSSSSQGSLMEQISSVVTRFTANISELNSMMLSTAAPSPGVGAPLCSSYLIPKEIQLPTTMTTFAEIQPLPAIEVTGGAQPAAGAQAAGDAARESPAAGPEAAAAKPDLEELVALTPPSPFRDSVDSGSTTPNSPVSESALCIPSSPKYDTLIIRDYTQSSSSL
Experiment: Negative allosteric modulation activity at recombinant human mGluR5a expressed in CHO cells assessed as inhibition of L-glutamate-induced intracellular Ca2+ mobilization

>  <smiles repr>
OCCSc1nc2c(c(NC3Cc4ccccc4C3)n1)CCCC2

>  <tested target>
Metabotropic glutamate receptor 5 (Homo sapiens, UniProt P41594)

>  <IC50>
> 9.1 µM

$$$$

###

Biological target: Metabotropic glutamate receptor 1 (Rattus norvegicus, UniProt P23385)
Sequence (P23385 whole entry): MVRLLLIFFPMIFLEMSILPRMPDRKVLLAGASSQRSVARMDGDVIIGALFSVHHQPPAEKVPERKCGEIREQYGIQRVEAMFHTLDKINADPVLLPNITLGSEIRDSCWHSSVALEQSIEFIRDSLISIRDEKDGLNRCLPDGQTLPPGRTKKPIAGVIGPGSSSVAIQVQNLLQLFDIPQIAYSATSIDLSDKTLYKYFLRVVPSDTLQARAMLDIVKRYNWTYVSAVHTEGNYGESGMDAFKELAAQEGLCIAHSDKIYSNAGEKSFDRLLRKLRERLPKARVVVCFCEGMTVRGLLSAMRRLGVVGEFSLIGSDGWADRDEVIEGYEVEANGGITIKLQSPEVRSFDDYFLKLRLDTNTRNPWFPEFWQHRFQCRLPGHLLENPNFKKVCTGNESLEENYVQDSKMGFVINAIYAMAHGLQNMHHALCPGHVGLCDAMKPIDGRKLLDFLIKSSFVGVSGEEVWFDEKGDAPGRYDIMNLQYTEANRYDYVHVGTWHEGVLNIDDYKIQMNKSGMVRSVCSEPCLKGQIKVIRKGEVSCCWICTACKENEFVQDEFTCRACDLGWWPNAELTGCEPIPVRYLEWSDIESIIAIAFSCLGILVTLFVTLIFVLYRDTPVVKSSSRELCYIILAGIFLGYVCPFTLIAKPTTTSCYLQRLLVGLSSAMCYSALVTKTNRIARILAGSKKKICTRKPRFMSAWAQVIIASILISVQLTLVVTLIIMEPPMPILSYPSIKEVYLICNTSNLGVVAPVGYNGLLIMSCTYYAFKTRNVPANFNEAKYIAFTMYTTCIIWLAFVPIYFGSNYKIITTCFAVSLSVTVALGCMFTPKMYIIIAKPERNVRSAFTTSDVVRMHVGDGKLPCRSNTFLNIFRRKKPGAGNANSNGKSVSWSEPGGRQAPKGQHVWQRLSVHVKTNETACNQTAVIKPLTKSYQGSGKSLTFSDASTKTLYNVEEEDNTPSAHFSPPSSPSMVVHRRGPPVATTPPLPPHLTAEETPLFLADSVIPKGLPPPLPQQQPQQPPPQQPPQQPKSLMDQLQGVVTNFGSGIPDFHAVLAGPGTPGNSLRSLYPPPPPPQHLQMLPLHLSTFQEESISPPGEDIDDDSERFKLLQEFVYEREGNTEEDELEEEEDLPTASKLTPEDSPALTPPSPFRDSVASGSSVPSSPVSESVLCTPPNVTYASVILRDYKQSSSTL
Experiment: Negative allosteric modulation of rat mGluR1 expressed in HEK293 cells assessed as inhibition of glutamate induced calcium mobilization by calcium mobilization assay
pIC50: −log10 of the molar value.

>  <molecule>
C[C@@H](Nc1ncnc2c1nn1ccccc21)C1CC1

>  <relation sign>
<

>  <pIC50>
5.00

$$$$
>  <molecule>
OC12CC3CC(C1)CC(Nc1ncnc4c1nn1ccccc41)(C3)C2

>  <relation sign>
=

>  <pIC50>
6.32

$$$$
>  <molecule>
CC(C)(C)CCNc1ncnc2c1nn1ccccc21

>  <relation sign>
=

>  <pIC50>
6.47

$$$$
>  <molecule>
c1ccn2nc3c(NC4C5CC6CC(C5)CC4C6)ncnc3c2c1 (stereo unspecified)

>  <relation sign>
=

>  <pIC50>
7.08

$$$$
>  <molecule>
CCC(C)(C)Nc1ncnc2c1nn1ccccc21

>  <relation sign>
<

>  <pIC50>
5.00

$$$$
>  <molecule>
CC(C)Nc1nc(N[C@H]2CC[C@H](C)CC2)c2nn3ccccc3c2n1

>  <relation sign>
<

>  <pIC50>
4.52

$$$$
>  <molecule>
C[C@H]1CC[C@H](Nc2ncnc3c2nn2ccccc32)CC1

>  <relation sign>
=

>  <pIC50>
7.03

$$$$
>  <molecule>
C[C@@H]1[C@@H](Nc2ncnc3c2nn2ccccc32)C[C@H]2C[C@@H]1C2(C)C

>  <relation sign>
=

>  <pIC50>
6.63

$$$$
>  <molecule>
COCCNc1nc(N[C@H]2CC[C@H](C)CC2)c2nn3ccccc3c2n1

>  <relation sign>
<

>  <pIC50>
4.52

$$$$
>  <molecule>
CN(C)c1nc(N[C@H]2CC[C@H](C)CC2)c2nn3ccccc3c2n1

>  <relation sign>
<

>  <pIC50>
4.52

$$$$
>  <molecule>
c1ccn2nc3c(N[C@H]4C[C@@H]5CC[C@H]4C5)ncnc3c2c1

>  <relation sign>
=

>  <pIC50>
6.63

$$$$
>  <molecule>
C[C@H]1CC[C@H](Nc2nc(N)nc3c2nn2ccccc32)CC1

>  <relation sign>
=

>  <pIC50>
5.25

$$$$
>  <molecule>
CNc1nc(N[C@H]2CC[C@H](C)CC2)c2nn3ccccc3c2n1

>  <relation sign>
<

>  <pIC50>
4.52

$$$$
>  <molecule>
CC1(C)CCC(Nc2ncnc3c2nn2ccccc32)CC1

>  <relation sign>
=

>  <pIC50>
7.16

$$$$
>  <molecule>
FC1(F)CCC(Nc2ncnc3c2nn2ccccc32)CC1

>  <relation sign>
<

>  <pIC50>
5.00

$$$$
>  <molecule>
c1ccn2nc3c(NC45CC6CC(CC(C6)C4)C5)ncnc3c2c1

>  <relation sign>
=

>  <pIC50>
6.83

$$$$
